Listed here: items and their measured viability increase.
Experiment: doxorubicin toxicity protection in MRP-1 cells – H69AR cells, CellTiter-Glo, duplicate, MRP-1 activator project, pilot screen (AID 807);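 also: compound pretreatment 18-22 h then 72 h combined with doxorubicin; 0% = doxorubicin alone and 100% = vehicle without doxorubicin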
Conditions: H69AR viability with doxorubicin, CellTiter-Glo luminescence; at 10 µM; stronger effect = higher value
quantity-measured: viability increase (%)

# compound, quantity-measured, measurement-units, recorded-measurement
rows = [
    ("CS(=O)(=O)NCCSCc1c(F)cccc1Cl", "viability increase", "%", 0.04),
    ("COc1ccc(NC(=O)Nc2ccc(N3CCCC3=O)cc2)cc1OC", "viability increase", "%", -3.97),
    ("CCN1C(=O)c2ccccc2S(=O)(=O)c2ccc(C(=O)NCc3cccnc3)cc21", "viability increase", "%", -2.25),
    ("O=S(=O)(NCC(O)COCc1ccco1)c1cccs1 (centres undefined)", "viability increase", "%", -3.34),
    ("CCN(CCNC(=O)Cn1c(=O)sc2ccccc21)c1ccccc1", "viability increase", "%", -3.76),
    ("Cc1cccc(-c2nc(CS(=O)CC(=O)N3CCN(C)CC3)c(C)o2)c1 (centres undefined)", "viability increase", "%", -1.78),
    ("COc1cccc(C(c2sc3ncnn3c2O)N2CCN(C(=O)c3ccco3)CC2)c1 (centres undefined)", "viability increase", "%", 0.76),
    ("O=C(OCC1COc2ccccc2O1)c1c(F)cccc1F (centres undefined)", "viability increase", "%", 2.01),
    ("Cc1cc(N2C(=O)CC(Cc3ccccc3)C2=O)no1 (centres undefined)", "viability increase", "%", 1.08),
    ("O=C(/C=C/N1CCOCC1)c1ccc(-c2ccccc2)cc1", "viability increase", "%", -1.77),
    ("O=C(Nc1cnccn1)c1cccs1", "viability increase", "%", -2.25),
    ("CCC(C)Sc1nc2c(cnn2-c2ccc(C)cc2)c(=O)[nH]1 (centres undefined)", "viability increase", "%", -3.06),
    ("CCSC1=C(C#N)C(c2ccc(F)cc2)CC(=O)N1 (centres undefined)", "viability increase", "%", 1),
    ("CCOc1ccccc1NC(=O)C1CCN(S(=O)(=O)c2cccc3cccnc23)CC1", "viability increase", "%", -3.97),
    ("CSCCC(NC(=O)c1c(C)oc2c1CCCC2)C(=O)O (centres undefined)", "viability increase", "%", -0.78),
    ("COc1cccc(N(C(C)=O)c2nc(C)cc(C)c2C#N)c1", "viability increase", "%", -0.35),
    ("CCN(CC)C(=O)Oc1ccc(NC(C)=O)cc1", "viability increase", "%", -0.49),
    ("CC(=O)c1c(C)cc(C)c(CSc2nc(C)cc(=O)[nH]2)c1C", "viability increase", "%", 0.08),
    ("COc1cccc(NC(=O)c2nc3nc(C)cc(C(F)F)n3n2)c1", "viability increase", "%", 1.69),
    ("CN(C)CCNc1oc(-c2ccccc2F)nc1C#N", "viability increase", "%", 1.17),
    ("Cc1cc2ncc(-c3ccc(Cl)cc3)c(N)n2n1", "viability increase", "%", -4.85),
    ("CCOc1ccc(N2CC(C(=O)Nc3ccccc3OC)CC2=O)cc1 (centres undefined)", "viability increase", "%", -1.73),
    ("CCCCNC(=O)c1cc2c(-c3ccc(Cl)cc3)nn(C)c2s1", "viability increase", "%", -5.53),
    ("CCCCN(CC)CCNC(=O)c1cc2c(C)nc3ccccc3c2o1", "viability increase", "%", -3.49),
]

###

Target: Receptor tyrosine-protein kinase erbB-2 (Homo sapiens) (UniProt P04626)
Sequence (P04626 whole entry, looked up): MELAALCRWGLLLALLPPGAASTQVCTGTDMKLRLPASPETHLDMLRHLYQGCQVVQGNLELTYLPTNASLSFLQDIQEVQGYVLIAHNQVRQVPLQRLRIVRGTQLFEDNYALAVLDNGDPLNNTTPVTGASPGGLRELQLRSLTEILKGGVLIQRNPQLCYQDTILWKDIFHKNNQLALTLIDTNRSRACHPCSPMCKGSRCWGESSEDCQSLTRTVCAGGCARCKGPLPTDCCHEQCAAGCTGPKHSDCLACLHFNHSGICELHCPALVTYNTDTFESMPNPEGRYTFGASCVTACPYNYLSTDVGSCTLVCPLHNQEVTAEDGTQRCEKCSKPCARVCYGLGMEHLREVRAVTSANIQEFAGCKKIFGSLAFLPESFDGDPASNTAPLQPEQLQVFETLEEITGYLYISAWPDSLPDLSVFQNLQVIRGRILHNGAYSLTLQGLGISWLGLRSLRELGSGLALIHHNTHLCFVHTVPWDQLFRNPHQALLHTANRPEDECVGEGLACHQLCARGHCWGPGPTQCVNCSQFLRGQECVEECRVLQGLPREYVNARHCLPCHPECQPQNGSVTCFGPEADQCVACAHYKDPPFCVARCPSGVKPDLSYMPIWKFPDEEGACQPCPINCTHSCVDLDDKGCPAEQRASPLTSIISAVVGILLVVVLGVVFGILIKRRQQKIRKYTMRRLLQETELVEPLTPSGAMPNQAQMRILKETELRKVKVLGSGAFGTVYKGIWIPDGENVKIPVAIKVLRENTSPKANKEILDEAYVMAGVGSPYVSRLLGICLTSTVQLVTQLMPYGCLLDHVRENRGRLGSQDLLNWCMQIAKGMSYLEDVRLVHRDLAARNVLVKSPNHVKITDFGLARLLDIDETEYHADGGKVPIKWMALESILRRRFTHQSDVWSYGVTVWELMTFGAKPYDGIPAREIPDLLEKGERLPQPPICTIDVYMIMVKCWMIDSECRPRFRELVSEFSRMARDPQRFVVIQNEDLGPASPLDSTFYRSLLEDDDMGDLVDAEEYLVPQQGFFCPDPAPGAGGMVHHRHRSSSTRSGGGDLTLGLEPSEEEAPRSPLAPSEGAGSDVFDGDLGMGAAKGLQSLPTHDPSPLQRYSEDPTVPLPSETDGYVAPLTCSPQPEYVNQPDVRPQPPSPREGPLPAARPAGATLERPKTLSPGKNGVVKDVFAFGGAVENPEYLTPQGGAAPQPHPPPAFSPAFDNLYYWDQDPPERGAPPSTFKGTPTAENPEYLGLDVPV
Assay: Her2 expression decrease, cell viability multiplex – SKBR3 breast tumor cells, AlphaScreen, ATP viability, primary screen (AID 461);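 also: lower value means less Her2 protein in the cells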
Conditions: 18-24 h, at 10 µM, stronger effect = lower value
The reader will find reported Her2 level values listed item by item below.

# molecule, Her2 level (%)
measured = [
    ("CN(C)c1cc(NC(=O)CN2CCOCC2)c2ccccc2n1", 100),
    ("CCC1CCCCN1C(=O)CSc1nnc(-c2ccc(OC)cc2)o1 (stereo unspecified)", 102),
    ("CCOc1ccc(-c2nnc(SCC(=O)N3CCN(c4ccccc4)CC3)o2)cc1", 96),
    ("Cc1ccc(C)c(N2CCN(CCCNC(=O)Cn3cc4c(n3)CCC(C)C4)CC2)c1 (stereo unspecified)", 78),
    ("COc1ccc(NC(=O)c2cc(C3CC3)on2)c(OC)c1", 91.5),
    ("CCOC(=O)N1CCN(C(=O)CSc2nnc(-c3cccc(Cl)c3)o2)CC1", 96.5),
]

###

Molecular target: Receptor tyrosine-protein kinase erbB-2 (Homo sapiens) (UniProt P04626)
Test: Her2 expression decrease, cell viability multiplex – SKBR3 breast tumor cells, AlphaScreen, ATP viability, primary screen (AID 461);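 also: lower value means less Her2 protein in the cells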
Conditions: 18-24 h, at 10 µM, stronger effect = lower value
API: label(entry) gives Y if the entry's Her2 level is strictly smaller than 90%; on equality or larger values it gives N.

# molecule, class-label
data = [
    ("CC1CCN(Cc2nc3c(c(=O)n(C)c(=O)n3C)n2Cc2cccc3ccccc23)CC1", "Y"),
    ("COCCNC(=O)c1cc(-c2cccs2)on1", "Y"),
    ("O=C(NCc1ccccc1)C1CCN(S(=O)(=O)c2cccc3cccnc23)CC1", "N"),
    ("CC(=O)N1CCc2c(sc(NC(=O)c3ccc(S(=O)(=O)N(C)C)cc3)c2C#N)C1", "N"),
    ("CCCn1c(NCc2cc(C)ccc2O)nc2ccccc21", "N"),
    ("CCOC(=O)CSc1nnc(Cn2c(=O)sc3ccccc32)n1C", "N"),
    ("CC1=C(C(=O)Nc2cccnc2)C(c2ccc(C(C)C)cc2)n2ncnc2N1 (stereo not given)", "N"),
    ("Cc1nc2ccccc2c2oc(C(=O)N3CCN(C(=O)c4ccco4)CC3)cc12", "N"),
    ("CC(=O)NCc1nc2ccccc2n1C(C)C", "N"),
    ("CCOC(=O)C(C)Sc1nnc(Cc2cc(=O)[nH]c(=O)[nH]2)n1-c1ccc(Cl)cc1 (stereo not given)", "N"),
    ("CCOC(=O)N1CCC(c2cc(=O)n3[nH]cc(C(=O)OC)c3n2)CC1", "N"),
    ("Cc1ccc(-n2c3c(cc(C(=O)O)c2=O)C(=O)CC(C)(C)C3)cc1", "Y"),
    ("CCOC(=O)N1CCN(C(=O)c2c(-c3ccccc3)noc2C)CC1", "N"),
    ("CCOCCCNC(=O)c1ccc2c(c1)N(Cc1ccccc1)C(=O)CS2=O (stereo not given)", "N"),
    ("O=C1NC2(Nc3ccccc31)C(=O)Nc1ccccc12 (stereo not given)", "Y"),
    ("COc1ccc(C2CC(c3ccc(C)cc3)Nc3ncnn32)cc1 (stereo not given)", "N"),
    ("CC1CCc2nn(CC(=O)NCCCN3CCOCC3)cc2C1 (stereo not given)", "N"),
    ("COc1ccc(OC)c(C2=NOC(C(=O)Nc3c(C)n(C)n(-c4ccccc4)c3=O)C2)c1 (stereo not given)", "N"),
    ("COc1ccc(NC(=O)C2CCCN(S(=O)(=O)c3cccc4cccnc34)C2)cc1OC (stereo not given)", "N"),
    ("O=C(OCN1C(=O)c2ccccc2C1=O)C1CCCCC1", "N"),
    ("CCN(CC)C1CCCCC1NS(=O)(=O)c1ccc(Cl)cc1 (stereo not given)", "N"),
    ("CCN(CC)CCNC(=O)c1ccc(CS(=O)(=O)c2ccc(Br)cc2)o1", "N"),
    ("Cc1ccc(-n2c3c(cc(C(=O)NCCCN4CCOCC4)c2=O)C(=O)CC(C)(C)C3)cc1", "N"),
    ("CC1CCCCN1CCNC(=O)C1CCN(S(=O)(=O)c2cccc3cccnc23)CC1 (stereo not given)", "N"),
    ("O=C(Nc1nc(-c2ccncc2)cs1)C1COc2ccccc2O1 (stereo not given)", "N"),
    ("O=C(NCCN1C(=O)C2C3C=CC(C3)C2C1=O)N1CCOCC1 (stereo not given)", "N"),
    ("Cc1cc2ccccc2n1CCNC(=O)C1CC1", "Y"),
    ("O=C(c1cccs1)N1CCc2ccccc21", "Y"),
    ("Cn1ccnc1SCC(=O)Nc1ccc2ccccc2c1", "Y"),
    ("O=C(c1cnc2n(c1=O)CCS2)N(C1CCCCC1)C1CCCCC1", "Y"),
    ("CC(=O)Nc1cccc(Oc2nc(C)cc(C)c2C#N)c1", "N"),
    ("Cc1cccc(Cn2c(SCCN3CCCCC3)nc3c2c(=O)[nH]c(=O)n3C)c1", "N"),
    ("Cc1noc(/C=C/N(C)C)c1S(=O)(=O)N1CCCC(C(=O)N2CCc3ccccc32)C1 (stereo not given)", "N"),
    ("CCc1nc2sc(C)c(C)c2c(=O)n1CCO", "Y"),
]

The reported measurements were obtained from PubChem BioAssay.
